- ASSAYED SYSTEM: PRMT5-MTA (Homo sapiens, UniProt O14744)
- Sequence (O14744 whole entry): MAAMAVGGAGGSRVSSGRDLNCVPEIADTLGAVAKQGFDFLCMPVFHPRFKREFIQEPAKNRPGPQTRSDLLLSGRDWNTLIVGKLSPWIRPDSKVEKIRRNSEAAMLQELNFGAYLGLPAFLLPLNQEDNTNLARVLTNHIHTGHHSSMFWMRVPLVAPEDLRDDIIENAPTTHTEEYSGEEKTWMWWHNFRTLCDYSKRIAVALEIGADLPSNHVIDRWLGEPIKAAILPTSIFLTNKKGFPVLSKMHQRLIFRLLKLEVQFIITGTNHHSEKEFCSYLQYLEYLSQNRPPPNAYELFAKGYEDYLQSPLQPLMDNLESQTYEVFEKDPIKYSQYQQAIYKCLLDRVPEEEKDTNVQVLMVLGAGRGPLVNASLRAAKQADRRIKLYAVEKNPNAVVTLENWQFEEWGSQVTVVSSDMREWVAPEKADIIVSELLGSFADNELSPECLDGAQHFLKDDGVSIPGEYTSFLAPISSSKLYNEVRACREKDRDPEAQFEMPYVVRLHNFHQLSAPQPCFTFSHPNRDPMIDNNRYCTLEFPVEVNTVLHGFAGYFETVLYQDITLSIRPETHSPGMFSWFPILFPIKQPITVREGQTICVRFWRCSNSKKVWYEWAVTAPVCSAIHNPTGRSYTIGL
- Sequence (Q9BQA1 whole entry partner): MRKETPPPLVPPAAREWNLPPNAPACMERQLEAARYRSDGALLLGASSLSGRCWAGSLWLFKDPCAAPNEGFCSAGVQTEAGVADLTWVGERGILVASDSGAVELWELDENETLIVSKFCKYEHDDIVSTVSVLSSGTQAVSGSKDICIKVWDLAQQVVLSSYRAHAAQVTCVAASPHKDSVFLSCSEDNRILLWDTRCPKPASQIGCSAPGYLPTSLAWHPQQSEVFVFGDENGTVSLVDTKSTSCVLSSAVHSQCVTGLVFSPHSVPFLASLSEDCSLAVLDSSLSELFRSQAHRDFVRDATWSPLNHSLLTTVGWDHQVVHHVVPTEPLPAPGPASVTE
- TEST DESCRIPTION: biochemical
- CONDITION PARAMETERS: IC50 (nM), PRMT5+MTA enzyme activity inhibition; PRMT5/MET50 protein 1 nM, 5'-deoxy-5'-adenosine 1 µM, SAM 2.5 µM, Histone H4 substrate 5 nM
Provide the recorded IC50 for the entries that follow.
Answers are plain numbers, in nM.

* CNC(N)=Nc1ccc(C(=O)N(Cc2ccc3sc(C4CCN(C)CC4)nc3c2)[C@H](C)c2ccccc2F)cn1 | 3.1
* CNC(N)=Nc1ccc(C(=O)N(Cc2ccc(C(F)(F)F)cn2)C(C)c2ccccc2C(F)(F)F)cn1 (stereo not shown) | 0.9
* CC(c1ncccn1)N(Cc1ccc(C(F)(F)F)cn1)C(=O)c1ccc(N=C(N)NCCO)nc1 (stereo not shown) | 0.8
* CN/C(N)=N\c1ccc(C(=O)N(Cc2ccc(C(F)(F)F)cn2)[C@@H]2CCCc3ccccc32)cn1 | 3.5
* CNC(N)=Nc1ccc(C(=O)N(Cc2ccc(C(F)(F)F)cn2)N(C)c2ncccn2)cn1 | 3.2
* CNC(N)=Nc1ccc(C(=O)N(Cc2ccc(C(F)(F)F)cn2)C(C)c2cccc(C)c2)cn1 (stereo not shown) | 3.4

--- query ---
Which IC50 is reported with PRMT5-MTA (Homo sapiens, UniProt O14744) for this entry: CNC(N)=Nc1ccc(C(=O)N(Cc2ccc(-c3cnn(C(F)(F)F)c3)cn2)[C@H](C)c2ccccc2F)cn1 ?
4.8

###

- Tested on: HCT116 MTAP KO
- TEST DESCRIPTION: Cell proliferation inhibition (CellTiter Glo), HCT116 MTAP KO cells
- Assay type: cell-based
- CONDITION PARAMETERS: Homo sapiens, HCT-116, 144 h, cultured 6 days with compound
MEASURE: pIC50
Give bare numbers, as −log10 of the molar value.

• CNC(N)=Nc1ccc(C(=O)N(Cc2ccc(C(F)(F)F)cn2)C(C)c2ccccc2F)cn1 (centres unmarked) [Compound 42] = 7.21

Please supply pIC50 for each of the following items, keeping them in order.
1. CNC(N)=Nc1ccc(C(=O)N(Cc2ccccn2)[C@H](C)c2ccccc2F)cn1 [Compound 111]
2. CNC(N)=Nc1ccc(C(=O)N(Cc2ccc(C(F)(F)F)cn2)N(C)c2ncccn2)cn1 [Compound 113]
3. CNC(N)=Nc1ccc(C(=O)N(Cc2ccc(-c3ccc(C)nc3)cn2)[C@H](C)c2ccccc2F)cn1 [Compound 71]

1: 6.30; 2: 7.31; 3: 7.21

Please supply pIC50 for each of the following items, keeping them in order.
1. CN/C(N)=N\c1ccc(C(=O)N(Cc2ccc(C(C)(C)F)cn2)[C@H](C)c2ccccc2F)cn1 [Compound 75]
2. CNC(N)=Nc1ccc(C(=O)N(Cc2ccc(C(F)(F)F)cn2)C2CCCc3ccccc32)cn1 (centres unmarked) [Compound 61]
3. CNC(N)=Nc1ccc(C(=O)N(Cc2ccc(C(F)(F)F)cn2)c2cccc3ccccc23)cn1 [Compound 47]
4. CC(c1ncccn1)N(Cc1ccc(C(F)(F)F)cn1)C(=O)c1ccc(N=C(N)N)nc1 (centres unmarked) [Compound 7]

1: 7.44; 2: 7.55; 3: 7.51; 4: 6.37

###

- Tested on: HCT116-WT
- TEST DESCRIPTION: Cell proliferation inhibition (CellTiter Glo), HCT116-WT cells
- Format: cell-based
- CONDITION PARAMETERS: 144 h, cultured 6 days with compound
Provide the recorded pIC50 for the entries that follow.
One number for each entry, as −log10 of the molar value.

The cases that follow already have their pIC50 on record.
- CN/C(N)=N\c1ccc(C(=O)N(Cc2ccc(OC(F)(F)F)cn2)[C@H](C)c2ccccc2F)cn1: 6.48
- CNC(N)=Nc1ccc(C(=O)N(Cc2ccc(C(F)(F)F)cn2)c2cccc3ccccc23)cn1: 6.23

Please supply pIC50 for each of the following items, keeping them in order.
1. CNC(N)=Nc1ccc(C(=O)N(Cc2ccc(C(F)(F)F)cn2)C(C)c2cccc(C)c2)cn1 (stereo not shown)
2. CNC(N)=Nc1ccc(C(=O)N(Cc2ccc(C(F)(F)F)cn2)C(C)c2ccccc2)cn1 (stereo not shown)
3. CNC(N)=Nc1ccc(C(=O)N(Cc2ccc(C(F)(F)F)cc2)[C@H](C)c2ccccc2F)cn1
4. CN/C(N)=N\c1ccc(C(=O)N(Cc2ccc(C(F)(F)F)cn2)C(C)c2ccc(F)cc2)cn1 (stereo not shown)
5. CNC(N)=Nc1ccc(C(=O)N(Cc2ccccn2)[C@H](C)c2ccccc2F)cn1
6. CNC(N)=Nc1ccc(C(=O)N(Cc2ccc(F)c(C)c2)[C@H](C)c2ccccc2F)cn1
7. CNC(N)=Nc1ccc(C(=O)N(Cc2ccc(C(F)(F)F)cn2)c2csc3cccnc23)cn1

[5.47, 5.72, 6.34, 5.57, 5.19, 5.75, 6.21]

Please supply pIC50 for each of the following items, keeping them in order.
1. CNC(N)=Nc1ccc(C(=O)N(Cc2ccc(-c3cnc(C)nc3)cn2)[C@H](C)c2ccccc2F)cn1
2. CNC(N)=Nc1ccc(C(=O)N(Cc2ccc(C(F)(F)F)cn2)[C@H](C)c2cccc(F)c2F)cn1
3. CNC(N)=Nc1ccc(C(=O)N(Cc2ccc(C(F)(F)F)cn2)n2ccc3ccccc32)cn1

[5.59, 5.70, 5.75]

Please supply pIC50 for each of the following items, keeping them in order.
1. CNC(N)=Nc1ccc(C(=O)N(Cc2cccc(F)c2)[C@H](C)c2ccccc2F)cn1
2. CNC(N)=Nc1ccc(C(=O)N(Cc2ccc(-c3cccnc3)cn2)[C@H](C)c2ccccc2F)cn1
3. CNC(N)=Nc1ccc(C(=O)N(Cc2cccc(Cl)c2)[C@H](C)c2ccccc2F)cn1

5.44
5.70
5.54

###

- ASSAYED SYSTEM: PRMT5-MTA (Homo sapiens)
- TEST DESCRIPTION: biochemical
- CONDITION PARAMETERS: IC50 (nM), PRMT5+MTA enzyme activity inhibition; PRMT5/MET50 protein 1 nM, 5'-deoxy-5'-adenosine 1 µM, SAM 2.5 µM, Histone H4 substrate 5 nM
Provide the recorded IC50 for the entries that follow.
Numbers only, in nM.

- CNC(N)=Nc1ccc(C(=O)N(Cc2cccc(F)c2)[C@H](C)c2ccccc2F)cn1: 6.2
- CNC(N)=Nc1ccc(C(=O)N(Cc2ccc(C(F)(F)F)cc2)[C@H](C)c2ccccc2F)cn1: 7.9
- NC(=Nc1ccc(C(=O)N(Cc2ccc(C(F)(F)F)cn2)C2CCCc3ccccc32)cn1)NO (stereo not shown): 3.4
- CCNC(N)=Nc1ccc(C(=O)N(Cc2ccc(C(F)(F)F)cn2)C(C)c2ncccn2)cn1 (stereo not shown): 1.3
- CNC(N)=Nc1ccc(C(=O)N(Cc2ccc3ccsc3c2)[C@H](C)c2ccccc2F)cn1: 5.7

Please supply IC50 for each of the following items, keeping them in order.
1. CNC(N)=Nc1ccc(C(=O)N(Cc2ccc(-c3cnn(C)c3)cn2)[C@H](C)c2ccccc2F)cn1
2. CN/C(N)=N\c1ccc(C(=O)N(Cc2ccc(C(C)(C)F)cn2)[C@H](C)c2ccccc2F)cn1
3. CNC(N)=Nc1ccc(C(=O)N(Cc2ccc(C(F)(F)F)cn2)[C@H](C)c2cc(F)ccc2F)cn1
4. CNC(N)=Nc1ccc(C(=O)N(Cc2cscn2)[C@H](C)c2ccccc2F)cn1

5.4
2.6
4
5.8

###

- Test system: HCT116 MTAP KO
- TEST DESCRIPTION: Cell proliferation inhibition (CellTiter Glo), HCT116 MTAP KO cells
- Assay type: cell-based
- CONDITION PARAMETERS: Homo sapiens, HCT-116, 144 h, cultured 6 days with compound
Lab note: anything with IC50 below 60 nM is marked YES; values at 60 nM or higher are marked NO.

Known results for compounds:
* NC(=Nc1ccc(C(=O)N(Cc2ccc(C(F)(F)F)cn2)C2CCCc3ccccc32)cn1)NO (stereo not shown) | NO
* CNC(N)=Nc1ccc(C(=O)N(Cc2ccc(C(F)(F)F)cn2)n2ccc3ccccc32)cn1 | NO
* CNC(N)=Nc1ccc(C(=O)N(Cc2ccc(C(F)(F)F)cn2)C(C)c2ccccc2Cl)cn1 (stereo not shown) | NO
* CNC(N)=Nc1ccc(C(=O)N(Cc2ccc(C(F)(F)F)cn2)[C@H](C)c2cc(F)ccc2F)cn1 | YES
* CNC(N)=Nc1ccc(C(=O)N(Cc2ccc(C(F)(F)F)cn2)N2CCc3ccccc32)cn1 | NO

Would you kindly verify if IC50 of CN/C(N)=N\c1ccc(C(=O)N(Cc2ccc(C(F)(F)F)cn2)[C@H](C)c2ccc(F)cc2F)cn1 is strictly less than 60 nM?
YES

Would you kindly verify if IC50 of CNC(N)=Nc1ccc(C(=O)N(Cc2ccc(C(F)(F)F)cn2)C(C)c2ccccc2C)cn1 (stereo not shown) is strictly less than 60 nM?
NO

###

- System: HCT116-WT
- TEST DESCRIPTION: Cell proliferation inhibition (CellTiter Glo), HCT116-WT cells
- Assay type: cell-based
- CONDITION PARAMETERS: cultured 6 days with compound
MEASURE: IC50 (nM)
Answers are plain numbers, in nM.

Please report the recorded IC50 for CNC(N)=Nc1ccc(C(=O)N(Cc2ccc(C(F)(F)F)cn2)C2CCCc3cccnc32)cn1 (stereo not shown) .
493
